test_method_notes: Percent recovery in urine and feces after intravenous or oral administration
Assay type: in vivo, Female Sprague Dawley rats
measurement_conditions: female, Sprague Dawley, rat, urine, iv, 3 mg/kg, intravenous administration 3 mg/kg of parent compound, % of administered dose; read-out: % Recovery excretion, urine T 0–24 h

{"molecule": "CCCCC/C=C/C(=O)CCc1ccc(O)c(OC)c1 [[6]-shogaol]", "dose excreted, %": 0.003}
{"molecule": "CCCCC[C@H](O)CC(=O)CCc1ccc(O)c(OC)c1 [[6]-gingerol]", "dose excreted, %": 0.623}
{"molecule": "COc1cc(CCC(C)=O)ccc1O [zingerone, 4-(4-hydroxy-3-methoxyphenyl)-2-butanone]", "dose excreted, %": 0.184}

* * *

AUC(0-inf) values by entry
test_method_notes: Pharmacokinetics and oral bioavailability after single oral administration (30 mg/kg), plasma LC-MS/MS
Assay type: in vivo, Female Sprague Dawley rats
measurement_conditions: female, Sprague-Dawley, rat, plasma, po, 30 mg/kg, plasma analyte after [6]-gingerol p.o. 30 mg/kg, mean ± SD n=6

{"molecule": "CCCCC/C=C/C(=O)CCc1ccc(O)c(OC)c1 [[6]-shogaol]", "AUC(0-inf) [ng·h/mL]": 10.3}
{"molecule": "COc1cc(CCC(C)=O)ccc1O [zingerone, 4-(4-hydroxy-3-methoxyphenyl)-2-butanone]", "AUC(0-inf) [ng·h/mL]": 28}
{"molecule": "CCCCC[C@H](O)CC(=O)CCc1ccc(O)c(OC)c1 [[6]-gingerol]", "AUC(0-inf) [ng·h/mL]": 92.1}

* * *

test_method_notes: Percent recovery in urine and feces after intravenous or oral administration
Format: in vivo, Female Sprague Dawley rats
measurement_conditions: female, Sprague Dawley, rat, feces, po, 30 mg/kg, oral administration 30 mg/kg of parent compound, % of administered dose; read-out: % Recovery excretion, feces T 0–24 h
quantity_measured: dose excreted (%)

{"compound": "CCCCC[C@H](O)CC(=O)CCc1ccc(O)c(OC)c1 [[6]-gingerol]", "unit_spec": "%", "test_value": 0.001}
{"compound": "COc1cc(CCC(C)=O)ccc1O [zingerone, 4-(4-hydroxy-3-methoxyphenyl)-2-butanone]", "unit_spec": "%", "test_value": 0.004}
{"compound": "CCCCC/C=C/C(=O)CCc1ccc(O)c(OC)c1 [[6]-shogaol]", "unit_spec": "%", "test_value": 0.001}

Attribution: paper PMC11187260
